Tested System: KRas G12C (Homo sapiens, UniProt P01116, G12C);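 note: binding to KRas assessed by TR-FRET displacement after one hour incubation at room temperature, potency fitted from percent-of-control values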
Sequence (P01116 1-169 isoform P01116-2 G12C): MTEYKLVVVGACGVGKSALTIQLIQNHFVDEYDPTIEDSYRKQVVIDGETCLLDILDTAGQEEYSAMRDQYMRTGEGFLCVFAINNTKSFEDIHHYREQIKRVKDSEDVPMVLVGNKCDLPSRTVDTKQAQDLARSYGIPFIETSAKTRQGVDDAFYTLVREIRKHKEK
Experiment Notes: biochemical
Property Measured: IC50 (µM)

Sample records with IC50:
{"Compound": "Fc1c(-c2cccc3cccc(F)c23)ncc2c(NCc3cnn4c3OCCC4)nc(OCC34CCCN3CCC4)nc12 [Example 222]", "Tested System": "KRas G12C (Homo sapiens, UniProt P01116, G12C)", "Unit Name": "µM", "IC50": 8.98}
{"Compound": "N#CCc1cccc2cccc(-c3ncc4c(N5CCCC6(CC(=O)N6)C5)nc(OCC56CCCN5CCC6)nc4c3F)c12 (centres unmarked) [Example 434]", "Tested System": "KRas G12C (Homo sapiens, UniProt P01116, G12C)", "Unit Name": "µM", "IC50": 3.48}
{"Compound": "Fc1c(-c2cccc3cccc(F)c23)ncc2c(Nc3ccc4cn[nH]c4c3)nc(OCC34CCCN3CCC4)nc12 [Example 218]", "Tested System": "KRas G12C (Homo sapiens, UniProt P01116, G12C)", "Unit Name": "µM", "IC50": 6.88}
{"Compound": "Fc1c(-c2cccc3cccc(F)c23)ncc2c(N3CC(n4ccnc4)C3)nc(OCC34CCCN3CCC4)nc12 [Example 75]", "Tested System": "KRas G12C (Homo sapiens, UniProt P01116, G12C)", "Unit Name": "µM", "IC50": 1.83}

1. OC1CCCN(c2nc(OCC34CCCN3CCC4)nc3c(F)c(-c4cccc5cccc(F)c45)ncc23)C1 (centres unmarked) [Example 23]
2. Fc1c(-c2cccc3cccc(F)c23)ncc2c(N3CCCC4(COC4)C3)nc(OCC34CCCN3CCC4)nc12 [Example 220]
[Q] Hi! Which is lower in terms of IC50, the first one 1 or the second one 2 ? Record your answer as the label of the chosen record.
[A] 1

----------
System: pERK in H460 cells
Experiment Notes: Inhibition of KRas phosphorylation of ERK (Cisbio HTRF pERK assay)
Condition Context: Homo sapiens, NCI-H460, read-out: Inhibition (HTRF IC50) of KRas-mediated Phosphorylation of ERK, H460
Property Measured: IC50 (nM)

Sample records with IC50:
{"Compound": "Oc1cc(-c2ncc3c(N4CC5CC(O)C(C5)C4)nc(OC[C@@]45CCCN4C[C@H](F)C5)nc3c2F)c2c(Br)c(F)ccc2c1 (stereo partly shown)", "Numeric Value": 51}
{"Compound": "CCc1c(F)ccc2cc(O)cc(-c3ncc4c(N5CCOCC(CO)C5)nc(OC[C@@]56CCCN5C[C@H](F)C6)nc4c3F)c12 (stereo partly shown)", "Numeric Value": 151}
{"Compound": "CCc1c(F)ccc2cc(O)cc(-c3ncc4c(N5CCC[C@@](C)(O)C5)nc(OC[C@]56CCCN5[C@H](COC(=O)N(C)C)CC6)nc4c3F)c12", "Numeric Value": 38}
{"Compound": "CCc1c(F)ccc2cc(O)cc(-c3ncc4c(N5CCCC6(CCSC6)C5)nc(OC[C@@]56CCCN5C[C@H](F)C6)nc4c3F)c12 (stereo partly shown)", "Numeric Value": 99}
{"Compound": "CCc1c(F)ccc2cc(O)cc(-c3ncc4c(N5CC6C(=O)NC(=O)C6C5)nc(OC[C@@]56CCCN5C[C@H](F)C6)nc4c3F)c12 (stereo partly shown)", "Numeric Value": 183}

P. CCc1c(F)ccc2cc(O)cc(-c3ncc4c(NCc5cc(C(=O)N(C)C)nn5C)nc(OC[C@@]56CCCN5C[C@H](F)C6)nc4c3F)c12
Q. CCc1c(F)ccc2cc(O)cc(-c3ncc4c(N5CCC[C@@](C)(O)C5)nc(OC[C@@]56CCCN5[C@@H](CO)CC6)nc4c3F)c12
[Q] Hi! Which is lower in terms of IC50, the first one P or the second one Q ? Record your answer as the label of the chosen record.
[A] Q

I. CCc1c(F)ccc2cc(O)cc(-c3ncc4c(N5CCC[C@@](C)(O)C5)nc(OCC5(CN(C)C)CC5)nc4c3F)c12
II. CCc1c(F)ccc2cc(O)cc(-c3ncc4c(N5CCC[C@@](C)(O)C5)nc(OCC(C)(C)CN(C)C)nc4c3F)c12
III. CCc1c(F)ccc2cc(O)cc(-c3ncc4c(N5CCCc6nn(C(=O)NC(C)C)cc6C5)nc(OC[C@@]56CCCN5C[C@H](F)C6)nc4c3F)c12
IV. CCc1c(F)ccc2cc(O)cc(-c3ncc4c(N5CCCC6(CCC6O)C5)nc(OC[C@@]56CCCN5C[C@H](F)C6)nc4c3F)c12 (stereo partly shown)
V. CCc1c(F)ccc2cc(O)cc(-c3ncc4c(N5CCCn6nc(C(=O)N7CCCC7)cc6C5)nc(OC[C@@]56CCCN5C[C@H](F)C6)nc4c3F)c12
[Q] Sort the compounds on IC50; start with the lowest figure. Kindly provide the labels arranged according to the requested ordering.
[A] I, II, IV, V, III

A. CCc1c(F)ccc2cc(O)cc(-c3ncc4c(N5CCC[C@]6(CC(=O)N6)C5)nc(OC[C@@]56CCCN5C[C@H](F)C6)nc4c3F)c12 (single isomer, unassigned)
B. C[C@@]1(O)CCCN(c2nc(OC[C@@]34CCCN3C[C@H](F)C4)nc3c(F)c(-c4cc(O)cc5ccc(F)c(Br)c45)ncc23)C1
C. C#Cc1c(F)ccc2cc(O)cc(-c3ncc4c(N5CCOCC(CO)C5)nc(OC[C@@]56CCCN5C[C@H](F)C6)nc4c3F)c12 (stereo partly shown)
[Q] Hey, quick one: sort these by IC50, largest value first please. Kindly provide the labels arranged according to the requested ordering.
[A] C, A, B
(C: 143 nM, A: 55 nM, B: 18 nM)

----------
Tested System: KRas G12S (Homo sapiens, UniProt P01116, G12S);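 note: TR-FRET displacement binding to KRas, read after one hour incubation at room temperature, IC50 from four-parameter fit of percent of control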
Sequence (P01116 1-169 isoform P01116-2 G12S): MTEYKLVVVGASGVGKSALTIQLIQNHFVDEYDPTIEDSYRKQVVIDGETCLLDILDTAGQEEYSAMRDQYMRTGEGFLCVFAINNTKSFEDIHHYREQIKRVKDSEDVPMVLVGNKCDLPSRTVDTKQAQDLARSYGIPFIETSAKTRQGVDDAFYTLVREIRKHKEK
Experiment Notes: biochemical
pIC50: −log10 of the molar value.
Property Measured: pIC50

Sample records with pIC50:
{"Compound": "O=C1CC2(CCCN(c3nc(OCC45CCCN4CCC5)nc4c(F)c(-c5cccc6cccc(Cl)c56)ncc34)C2)N1 (centres unmarked)", "pIC50": 7.04}
{"Compound": "CN(Cc1c[nH]c2ncccc12)c1nc(OCC23CCCN2CCC3)nc2c(F)c(-c3cccc4cccc(F)c34)ncc12", "pIC50": 5.74}
{"Compound": "OC1CC2CC(C1)N(c1nc(OCC34CCCN3CCC4)nc3c(F)c(-c4cccc5cccc(Cl)c45)ncc13)C2 (centres unmarked)", "pIC50": 6.43}

A. Cc1cccc2cccc(-c3ncc4c(N5CCCC(CS(N)(=O)=O)C5)nc(OCC56CCCN5CCC6)nc4c3F)c12 (centres unmarked)
B. N#Cc1cccc2cccc(-c3ncc4c(N5CCCC6(C5)NC(=O)NC6=O)nc(OCC56CCCN5CCC6)nc4c3F)c12 (centres unmarked)
C. N#Cc1cccc2cccc(-c3ncc4c(N5CCCC6(CC(=O)N6)C5)nc(OCC56CCCN5CCC6)nc4c3F)c12 (centres unmarked)
[Q] Hey, quick one: sort these by pIC50, largest value first please. Kindly provide the labels arranged according to the requested ordering.
[A] A, C, B

----------
Tested System: KRas G12V (Homo sapiens, UniProt P01116, G12V);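 note: KRas binding measured by TR-FRET displacement at room temperature, IC50 fitted from percent of control values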
Sequence (P01116 1-169 isoform P01116-2 G12V): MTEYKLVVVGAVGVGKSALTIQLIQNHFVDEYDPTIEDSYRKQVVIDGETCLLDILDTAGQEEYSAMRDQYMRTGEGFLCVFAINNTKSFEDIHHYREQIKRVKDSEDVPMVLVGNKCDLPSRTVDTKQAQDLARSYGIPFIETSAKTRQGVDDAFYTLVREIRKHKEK
Experiment Notes: biochemical
pIC50: −log10 of the molar value.
Property Measured: pIC50

{"Compound": "CCc1c(F)ccc2cc(O)cc(-c3ncc4c(N5CCOC6(CCS(=O)(=O)CC6)C5)nc(OC[C@@]56CCCN5C[C@H](F)C6)nc4c3F)c12", "pIC50": 6.34}

1. N#Cc1ccccc1N1CCN(c2nc(OCC34CCCN3CCC4)nc3c(F)c(-c4cccc5cccc(F)c45)ncc23)CC1
2. O=C1CC2(CCCN(c3nc(OCC45CCCN4CCC5)nc4c(F)c(-c5cccc6cccc(F)c56)ncc34)C2)N1 (stereo not drawn)
[Q] Hi! Which is lower in terms of pIC50, the first one 1 or the second one 2 ? Record your answer as the label of the chosen record.
[A] 1

----------
Tested System: KRas G13D (Homo sapiens, UniProt P01116, G13D)
Construct: Biotinylated KRas (corresponding to amino acids 1-169, produced at Accelegan Inc.); biotin (biotinylated); purchased Accelegan Inc
Sequence (P01116 1-169 isoform P01116-2 G13D): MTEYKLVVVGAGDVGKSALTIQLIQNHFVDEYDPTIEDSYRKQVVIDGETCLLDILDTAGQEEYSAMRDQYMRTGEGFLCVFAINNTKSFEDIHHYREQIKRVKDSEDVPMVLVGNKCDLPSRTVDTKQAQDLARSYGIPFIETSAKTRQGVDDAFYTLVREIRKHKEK
Experiment Notes: KRas binding assay (TR-FRET displacement);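 note: One-hour room temperature incubation before TR-FRET reading, IC50 from a four-parameter curve fit to percent-of-control data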
Property Measured: IC50 (nM)

Sample records with IC50:
{"Molecule": "CCc1c(F)ccc2cc(O)cc(-c3ncc4c(N5CCCCC5)nc(OC[C@@]56CCCN5C[C@H](O)C6)nc4c3F)c12", "IC50 [nM]": 3}
{"Molecule": "C[C@@H]1C[C@@H](O)CN(c2nc(OCC34CCCN3CCC4)nc3c(F)c(-c4cccc5cccc(F)c45)ncc23)C1", "IC50 [nM]": 13300}
{"Molecule": "NS(=O)(=O)CC1CN(c2nc(OCC34CCCN3CCC4)nc3c(F)c(-c4cccc5cccc(F)c45)ncc23)CCO1 (stereo not shown)", "IC50 [nM]": 1280}

P. CC1(CNc2nc(OCC34CCCN3CCC4)nc3c(F)c(-c4cccc5cccc(F)c45)ncc23)CNC(=O)C1 (stereo not shown)
Q. C[C@@]1(O)CCCN(c2nc(OC[C@@]34CCCN3C[C@H](F)C4)nc3c(F)c(-c4c5ccccc5cc5[nH]ncc45)ncc23)C1
[Q] Hi! Which is lower in terms of IC50, the first one P or the second one Q ? Record your answer as the label of the chosen record.
[A] Q

I. N#Cc1cccnc1N1CCN(c2nc(OCC34CCCN3CCC4)nc3c(F)c(-c4cccc5cccc(F)c45)ncc23)CC1
II. Fc1c(-c2cccc3cccc(F)c23)ncc2c(NCc3ccc4nccn4c3)nc(OCC34CCCN3CCC4)nc12
[Q] # returns the entry with the larger IC50; inputs I and II Record your answer as the label of the chosen record.
[A] I
(I: 13300 nM, II: 6250 nM)
